test target: HLA-A*02:01
experimental protocol: IEDB peptide-MHC binding, purified MHC/competitive/radioactivity; filed as Kd, often an IC50 or EC50 that approximates it; bounds were set here for any values at or beyond the usual limits of such assays
protocol conditions: source organism: Homo sapiens
I'd appreciate it if you could supply pKd values for the items below.
Numbers only, as −log10 of the molar value.

1) RILGAVAKV
7.04

In: Query pKd for `TQLMPFGCLL`
Out: 6.59

---

test target: HLA-B*57:01
experimental protocol: IEDB peptide-MHC binding, purified MHC/competitive/fluorescence; filed as Kd, often an IC50 or EC50 that approximates it; bounds were set here for any values at or beyond the usual limits of such assays
protocol conditions: source organism: Escherichia coli O157:H7 str. Sakai
pKd: −log10 of the molar value.
measurement label: pKd

In: Query pKd for `HQIWLALRY`
Out: ≤ 4.70

Reference for the values: the Immune Epitope Database (IEDB)
